The values you see were collected from ChEMBL document CHEMBL1201862.

assay: P. falciparum Dd2 growth inhibitors, dose response, SYBR Green, cherry-picked samples (AID 1159567); type: functional, cell-based
Active and inactive are the calls of the source.
readout_kind: AC50

Consider the compound shown here: CCCN(C)C[C@H]1Oc2ncc(C#Cc3ccc(OC)cc3)cc2C(=O)N([C@@H](C)CO)C[C@H]1C What is its recorded AC50?
2.78 µM (active)

Consider the compound shown here: COc1cccc(S(=O)(=O)Nc2ccc3c(c2)[C@@H]2C[C@H](CC(=O)NCc4ccccc4F)O[C@@H](CO)[C@@H]2O3)c1 What is its recorded AC50?
5.32 µM (active)

Consider the compound shown here: CO[C@@H]1CN(C)C(=O)c2cc(NC(=O)c3ccccc3F)ccc2OC[C@H](C)N(C(=O)c2ccccc2F)C[C@@H]1C What is its recorded AC50?
2.47 µM (active)

Consider the compound shown here: COc1ccc2c3c(n(C)c2c1)[C@@H](CO)N(Cc1ccc(F)cc1)CC31CCN(CC2CC2)CC1 What is its recorded AC50?
3.48 µM (active)

* * *

target: Dual specificity protein kinase CLK4 (Homo sapiens, UniProt Q9HAZ1); type: functional
Sequence (Q9HAZ1 whole entry): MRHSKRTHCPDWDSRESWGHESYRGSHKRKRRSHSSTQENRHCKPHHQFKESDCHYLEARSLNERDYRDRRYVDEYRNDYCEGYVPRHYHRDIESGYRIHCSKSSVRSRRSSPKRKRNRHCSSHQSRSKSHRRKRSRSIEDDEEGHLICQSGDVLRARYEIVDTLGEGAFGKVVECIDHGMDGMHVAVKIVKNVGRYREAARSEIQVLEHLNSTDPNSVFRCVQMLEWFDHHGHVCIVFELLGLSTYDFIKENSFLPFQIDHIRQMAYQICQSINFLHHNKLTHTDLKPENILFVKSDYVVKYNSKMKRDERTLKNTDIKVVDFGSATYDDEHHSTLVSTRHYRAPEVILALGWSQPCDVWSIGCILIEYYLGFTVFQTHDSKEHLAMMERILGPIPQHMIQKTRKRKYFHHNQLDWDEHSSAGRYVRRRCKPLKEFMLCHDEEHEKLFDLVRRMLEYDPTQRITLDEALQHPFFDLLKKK
Active and inactive are the calls of the source.
readout_kind: Ki

Consider the molecule shown here: CC(C)(Nc1nccc(-c2c[nH]c3ncccc23)n1)c1ccccc1 What is its recorded Ki?
3.16 nM (active)

Consider the molecule shown here: Nc1nnc2sc3ccccc3n12 What is its recorded Ki?
31600 nM (active)

Consider the molecule shown here: O=C(Nc1cccc(C(F)(F)F)n1)Nc1ccnc2cc(F)ccc12 What is its recorded Ki?
2510 nM (active)

Consider the molecule shown here: O=[N+]([O-])c1ccc2[nH]c(-c3ccco3)nc2c1 What is its recorded Ki?
1580 nM (active)

* * *

For each of the compounds below, state its EC50.
target: Luciferin 4-monooxygenase (Photinus pyralis, UniProt P08659); assay: firefly luciferase enzyme inhibitors, dose response, biochemical, luminescence (AID 1891)
Sequence (P08659 whole entry): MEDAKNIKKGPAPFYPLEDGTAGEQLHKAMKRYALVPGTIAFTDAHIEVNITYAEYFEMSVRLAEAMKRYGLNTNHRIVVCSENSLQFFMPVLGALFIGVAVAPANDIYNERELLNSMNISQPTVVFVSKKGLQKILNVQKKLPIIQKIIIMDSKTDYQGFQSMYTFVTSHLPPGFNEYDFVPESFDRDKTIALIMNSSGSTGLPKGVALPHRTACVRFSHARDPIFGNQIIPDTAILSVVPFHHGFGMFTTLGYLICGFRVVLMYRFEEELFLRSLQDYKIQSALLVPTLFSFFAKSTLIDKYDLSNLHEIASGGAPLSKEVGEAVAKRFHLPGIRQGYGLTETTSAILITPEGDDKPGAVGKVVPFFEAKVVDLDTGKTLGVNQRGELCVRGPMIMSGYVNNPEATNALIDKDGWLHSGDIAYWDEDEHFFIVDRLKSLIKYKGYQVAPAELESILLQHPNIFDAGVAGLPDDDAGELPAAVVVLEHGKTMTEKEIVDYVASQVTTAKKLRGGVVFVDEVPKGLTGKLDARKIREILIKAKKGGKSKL
Calls of active or inactive are those of the source.

Consider the compound shown here: COc1cccc(C2CC(C(F)(F)F)n3ncc(C(=O)O)c3N2)c1 (stereo not drawn) What is its recorded EC50?
> 112 µM (not active)

Consider the compound shown here: COc1ccc(NC(=O)C2CCCN(c3nn4c(=O)cc(C)nc4s3)C2)c(OC)c1 (stereo not drawn) What is its recorded EC50?
> 112 µM (not active)

Consider the compound shown here: Cc1c(NC(=O)CSC(=S)N2CCCC2)c(=O)n(-c2ccccc2)n1C What is its recorded EC50?
> 112 µM (not active)

Consider the compound shown here: COc1ccc(N2CCN(c3nc4c(c(=O)n(C)c(=O)n4C)n3Cc3ccccc3)CC2)cc1 What is its recorded EC50?
18 µM (active)

Consider the compound shown here: CCCc1cc(=O)oc2c(C)c(OCC(=O)Nc3ccc(CN4CCOCC4)cc3)ccc12 What is its recorded EC50?
> 112 µM (not active)

Consider the compound shown here: COc1cc(O)ccc1C=O What is its recorded EC50?
> 112 µM (not active)

Consider the compound shown here: COc1ccc(-c2cc(C(F)(F)F)nc(SCC(=O)N3CCOCC3)n2)cc1OC What is its recorded EC50?
> 112 µM (not active)

Consider the compound shown here: CC(=O)Oc1ccc2c(=O)c(-c3nc4ccccc4s3)coc2c1 What is its recorded EC50?
3.63 µM (active)

Consider the compound shown here: Cc1cnc(NC(=O)c2ccccn2)s1 What is its recorded EC50?
34.9 µM (active)

Consider the compound shown here: O=C(CC1Oc2ccccc2NC1=O)NC1CCCC1 (stereo not drawn) What is its recorded EC50?
> 112 µM (not active)

Consider the compound shown here: O=C(N/N=C/c1ccccn1)c1ccc(NC(=O)c2ccc(F)cc2)cc1 What is its recorded EC50?
> 112 µM (not active)

Consider the compound shown here: CCOC(=O)c1ccc(NC(=O)CCc2ccc(C)o2)cc1 What is its recorded EC50?
> 112 µM (not active)

Consider the compound shown here: COc1ccc(CNC(=O)N[C@@H](CC(C)C)C(=O)O)cc1OC What is its recorded EC50?
> 112 µM (not active)
